- Measurement Protocol: Inhibition of [35S]GTP-gamma-S, binding in guinea pig caudate stimulated by SNC80 (Opioid receptor delta 1)
Property Label: pKi
Keep in mind that pKi stands for -log10 of concentration in molar terms.

Value lookup for pKi; key = C[C@H]1C2CCCC1(c1cccc(O)c1)CCN2CCc1ccccc1 (stereo partly specified) 7.89
